# tested-on: human IRE-1α (Homo sapiens (Human))
# Sequence (O75460 19-977): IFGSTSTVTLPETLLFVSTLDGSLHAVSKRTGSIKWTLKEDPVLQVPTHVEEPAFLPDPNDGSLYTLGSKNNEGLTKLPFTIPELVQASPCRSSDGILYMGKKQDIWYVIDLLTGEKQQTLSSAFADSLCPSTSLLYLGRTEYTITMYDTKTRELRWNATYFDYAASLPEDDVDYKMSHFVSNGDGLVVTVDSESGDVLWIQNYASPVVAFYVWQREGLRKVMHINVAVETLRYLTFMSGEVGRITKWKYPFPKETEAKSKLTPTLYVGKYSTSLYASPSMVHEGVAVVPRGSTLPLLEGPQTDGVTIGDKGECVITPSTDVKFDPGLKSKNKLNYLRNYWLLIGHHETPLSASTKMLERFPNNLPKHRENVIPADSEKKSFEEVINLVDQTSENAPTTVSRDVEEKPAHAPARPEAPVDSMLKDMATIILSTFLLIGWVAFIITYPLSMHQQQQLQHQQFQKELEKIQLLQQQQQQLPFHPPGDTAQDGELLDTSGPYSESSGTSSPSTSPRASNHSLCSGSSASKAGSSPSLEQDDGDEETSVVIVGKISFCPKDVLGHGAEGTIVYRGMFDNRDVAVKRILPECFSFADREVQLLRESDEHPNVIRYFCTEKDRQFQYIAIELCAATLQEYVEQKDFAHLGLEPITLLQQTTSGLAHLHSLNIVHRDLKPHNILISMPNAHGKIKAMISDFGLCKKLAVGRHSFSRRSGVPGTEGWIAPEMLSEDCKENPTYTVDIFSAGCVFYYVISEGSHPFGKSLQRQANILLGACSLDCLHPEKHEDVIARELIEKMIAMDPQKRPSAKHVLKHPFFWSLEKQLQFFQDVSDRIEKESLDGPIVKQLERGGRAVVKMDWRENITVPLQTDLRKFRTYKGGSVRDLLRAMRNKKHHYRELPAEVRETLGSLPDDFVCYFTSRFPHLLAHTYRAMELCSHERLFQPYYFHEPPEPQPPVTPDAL

compound	tested-on	unit-symbol	IC50
CCOc1cccc(C=O)c1O [3-ethoxy o-vanillin, 2-hydroxy-3-ethoxybenzaldehyde]	human IRE-1α (Homo sapiens (Human))	nM	1000
